# System: SW982
# Protocol: relative viability vs DMSO control (72 h) (fraction); higher = more viable cells
# Condition notes: 0.04115 µM
Record form. Attribute: relative viability. Fill in for each entry.
Answer with a number only.

Given the entry C[C@@H]1CN(C(=O)c2ccc(NC(=O)c3cc(O[C@H](C)c4c(Cl)ccc(F)c4Cl)c(N)nn3)cc2)C[C@H](C)N1 , report its measured relative viability.
0.965

Return reported relative viability; argument: O=S(=O)(c1cccc2c(O)nccc12)N1CCCNCC1 [Hydroxyfasudil]
1.06

Using the record for Cc1cc(F)c(C(=O)Nc2cccc(-c3nncn3C(C)C)n2)cc1-n1cnc(C2CC2)c1 , report its relative viability.
1.09

Fill in: relative viability of CN(C)C(=O)c1cc2cnc(Nc3ccc(N4CCNCC4)cn3)nc2n1C1CCCC1 is ___
1.02

Using the record for Cc1c2oc3c(C)ccc(C(=O)N[C@@H]4C(=O)N[C@H](C(C)C)C(=O)N5CCC[C@H]5C(=O)N(C)CC(=O)N(C)[C@@H](C(C)C)C(=O)O[C@@H]4C)c3nc-2c(C(=O)N[C@@H]2C(=O)N[C@H](C(C)C)C(=O)N3CCC[C@H]3C(=O)N(C)CC(=O)N(C)[C@@H](C(C)C)C(=O)O[C@@H]2C)c(N)c1=O , report its relative viability.
0.234

I have this compound here, CCOc1cc2ncc(C#N)c(Nc3ccc(OCc4ccccn4)c(Cl)c3)c2cc1NC(=O)/C=C/CN(C)C , and I need its recorded relative viability.
1

// query relative viability value for entry COC(=O)c1ccc2c(c1)NC(=O)/C2=C(\Nc1ccc(N(C)C(=O)CN2CCN(C)CC2)cc1)c1ccccc1
0.965

I have this compound here, Cn1cnc2c(F)c(Nc3ccc(Br)cc3Cl)c(C(=O)NOCCO)cc21 , and I need its recorded relative viability.
0.956
